- tgt: GDP loaded biotinylated KRas^G12C protein (Homo sapiens, UniProt P01116, G12C)
- Construct: biotin (biotinylated); made in house
- Sequence (P01116 1-188 isoform P01116-2 G12C): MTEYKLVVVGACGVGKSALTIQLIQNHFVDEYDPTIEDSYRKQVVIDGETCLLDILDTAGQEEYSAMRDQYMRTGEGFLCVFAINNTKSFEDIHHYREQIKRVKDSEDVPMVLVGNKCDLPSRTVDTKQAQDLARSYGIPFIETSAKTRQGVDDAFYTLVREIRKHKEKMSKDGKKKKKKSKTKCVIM
- protocol_notes: KRasG12C mass spectrometry adducting assay
- Assay type: binding
- recorded_conditions: test compound final concentration 10 μM, 4 μM KRasG12C, react for 4 hours
Each record here notes measured KRasG12C M.S. Binding Mean adduct %.
value_type: KRasG12C M.S. Binding Mean adduct % (%)

[[record]]
compound = "C=CC(=O)N1CCN2c3ncnc4cc(-c5cccc6oc(=O)n(C)c56)c(Cl)c(c34)OC[C@@H]2C1"
tgt = "GDP loaded biotinylated KRas^G12C protein (Homo sapiens, UniProt P01116, G12C)"
measurement_units = "%"
numeric_readout = 9

[[record]]
compound = "C=CC(=O)N1CCN2c3ncnc4cc(-c5ccccc5F)c(Cl)c(c34)OC[C@@H]2C1"
tgt = "GDP loaded biotinylated KRas^G12C protein (Homo sapiens, UniProt P01116, G12C)"
measurement_units = "%"
numeric_readout = 100

[[record]]
compound = "C=CC(=O)N1CCN2c3ncnc4cc(-c5ccc(N)cc5C)c(Cl)c(c34)OC[C@@H]2C1"
tgt = "GDP loaded biotinylated KRas^G12C protein (Homo sapiens, UniProt P01116, G12C)"
measurement_units = "%"
numeric_readout = 60

[[record]]
compound = "C=CC(=O)N1CCN2c3ncnc4cc(-c5c(O)cccc5F)c(Cl)c(c34)OC[C@@H]2C1 [Example 9]"
tgt = "GDP loaded biotinylated KRas^G12C protein (Homo sapiens, UniProt P01116, G12C)"
measurement_units = "%"
numeric_readout = 100

[[record]]
compound = "C=CC(=O)N1CCN2c3ncnc4cc(-c5c(O)cccc5Cl)c(Cl)c(c34)OC[C@@H]2C1 (single isomer, unassigned) [Example 16]"
tgt = "GDP loaded biotinylated KRas^G12C protein (Homo sapiens, UniProt P01116, G12C)"
measurement_units = "%"
numeric_readout = 100

[[record]]
compound = "C=CC(=O)N1CCN2c3ncnc4cc(-c5ccccc5OC(F)(F)F)c(Cl)c(c34)OC[C@@H]2C1"
tgt = "GDP loaded biotinylated KRas^G12C protein (Homo sapiens, UniProt P01116, G12C)"
measurement_units = "%"
numeric_readout = 87

[[record]]
compound = "C=CC(=O)N1CCN2c3ncnc4cc(-c5cccc(NC(=O)OC)c5)c(Cl)c(c34)OC[C@@H]2C1"
tgt = "GDP loaded biotinylated KRas^G12C protein (Homo sapiens, UniProt P01116, G12C)"
measurement_units = "%"
numeric_readout = 24


----------
Recorded IC50 values for a group of compounds are listed next.
- tgt: GDP loaded biotinylated KRas^G12C protein (Homo sapiens, UniProt P01116, G12C)
- Construct: biotin (biotinylated); made in house
- protocol_notes: KRasG12C functional assay
- Assay type: biochemical
- recorded_conditions: HTRF FRET readout of SOS-mediated nucleotide exchange and GST-Raf RBD binding; samples incubated for 4 hrs; read-out: KRasG12C functional assay IC50 value
value_type: IC50

[[record]]
compound = "C=CC(=O)N1CCN2c3ncnc4cc(-c5cnccc5C)c(Cl)c(c34)OC[C@@H]2C1"
tgt = "GDP loaded biotinylated KRas^G12C protein (Homo sapiens, UniProt P01116, G12C)"
result = "4.03 µM"

[[record]]
compound = "C=CC(=O)N1CCN2c3ncnc4cc(-c5cccc6c5OCCOC6)c(Cl)c(c34)OC[C@@H]2C1"
tgt = "GDP loaded biotinylated KRas^G12C protein (Homo sapiens, UniProt P01116, G12C)"
result = "4.41 µM"

[[record]]
compound = "C=CC(=O)N1CCN2c3ncnc4cc(-c5c(O)cccc5F)c(Cl)c(c34)OC[C@@H]2C1 (single isomer, unassigned) [Example 11]"
tgt = "GDP loaded biotinylated KRas^G12C protein (Homo sapiens, UniProt P01116, G12C)"
result = "0.097 µM"

[[record]]
compound = "C=CC(=O)N1CCN2c3ncnc4cc(-c5ccccc5S(C)(=O)=O)c(Cl)c(c34)OC[C@@H]2C1"
tgt = "GDP loaded biotinylated KRas^G12C protein (Homo sapiens, UniProt P01116, G12C)"
result = "5.02 µM"

[[record]]
compound = "C=CC(=O)N1CCN2c3ncnc4cc(-c5cccc6cnn(C)c56)c(Cl)c(c34)OC[C@@H]2C1"
tgt = "GDP loaded biotinylated KRas^G12C protein (Homo sapiens, UniProt P01116, G12C)"
result = "0.803 µM"

[[record]]
compound = "C=CC(=O)N1CCN2c3ncnc4cc(-c5cccc(S(N)(=O)=O)c5)c(Cl)c(c34)OC[C@@H]2C1"
tgt = "GDP loaded biotinylated KRas^G12C protein (Homo sapiens, UniProt P01116, G12C)"
result = "6.97 µM"

[[record]]
compound = "C=CC(=O)N1CCN2c3ncnc4cc(-c5cc(Cl)ccc5OC)c(Cl)c(c34)OC[C@@H]2C1"
tgt = "GDP loaded biotinylated KRas^G12C protein (Homo sapiens, UniProt P01116, G12C)"
result = "6.31 µM"

